Target: Delta-type opioid receptor (Mus musculus, UniProt P32300)
Sequence (P32300 whole entry): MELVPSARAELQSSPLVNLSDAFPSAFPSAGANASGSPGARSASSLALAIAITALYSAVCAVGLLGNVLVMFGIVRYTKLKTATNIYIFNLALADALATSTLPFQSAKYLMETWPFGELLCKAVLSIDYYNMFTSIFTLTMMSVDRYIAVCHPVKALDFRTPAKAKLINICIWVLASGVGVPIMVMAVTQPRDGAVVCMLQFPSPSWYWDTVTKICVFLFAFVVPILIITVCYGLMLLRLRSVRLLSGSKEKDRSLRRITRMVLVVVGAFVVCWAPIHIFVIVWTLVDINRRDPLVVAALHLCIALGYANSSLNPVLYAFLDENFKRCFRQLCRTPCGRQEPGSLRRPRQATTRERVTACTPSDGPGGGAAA
Assay: Displacement of [3H]diprenorphine from mouse delta opioid receptor expressed in CHO cells
Assay type: cell-based
Conditions: cho
Measurement Label: Ki

What value of Ki has been reported for the following molecule? CCOC(C)O[C@H]1C[C@@H](C(=O)OC)[C@]2(C)CC[C@H]3C(=O)O[C@H](c4ccoc4)C[C@]3(C)[C@H]2C1=O (stereo partly specified)
> 1 µM

---

Please respond with reported EC50 for every item in the list.
Biological target: Kappa-type opioid receptor (Homo sapiens)
Sequence (P41145 whole entry): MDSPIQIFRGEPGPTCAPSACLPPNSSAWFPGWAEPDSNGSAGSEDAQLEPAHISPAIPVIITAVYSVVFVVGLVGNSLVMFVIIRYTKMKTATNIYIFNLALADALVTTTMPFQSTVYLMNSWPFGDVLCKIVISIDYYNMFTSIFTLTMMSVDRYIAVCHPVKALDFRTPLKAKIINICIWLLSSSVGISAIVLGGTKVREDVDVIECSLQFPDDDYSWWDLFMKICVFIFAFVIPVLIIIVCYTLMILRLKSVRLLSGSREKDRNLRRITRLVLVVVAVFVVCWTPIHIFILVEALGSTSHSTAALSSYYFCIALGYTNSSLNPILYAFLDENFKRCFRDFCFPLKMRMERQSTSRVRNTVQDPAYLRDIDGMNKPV
Test: Agonist activity at human kappa opioid receptor expressed in CHO cells assessed as stimulation of [35S]GTPgammaS binding
Assay type: functional, cell-based
Give bare numbers, in µM.

# Compound, Experimental Target, Units Text, Numeric Result
measured = [
    ("COC(=O)[C@@H]1C[C@H](OCF)C(=O)[C@H]2[C@@]1(C)CC[C@H]1C(=O)O[C@H](c3ccoc3)C[C@]21C [SALVINORIN B FLUOROMETHYL ETHER]", "Kappa-type opioid receptor (Homo sapiens)", "µM", 0.026),
    ("COC(=O)[C@@H]1C[C@H](OCOCCF)C(=O)[C@H]2[C@@]1(C)CC[C@H]1C(=O)O[C@H](c3ccoc3)C[C@]21C", "Kappa-type opioid receptor (Homo sapiens)", "µM", 0.0038),
    ("COC(=O)[C@@H]1C[C@H](OCSC)C(=O)[C@H]2[C@@]1(C)CC[C@H]1C(=O)O[C@H](c3ccoc3)C[C@]21C [SALVINORIN B METHYLTHIOMETHYL ETHER]", "Kappa-type opioid receptor (Homo sapiens)", "µM", 0.031),
    ("CCCCOCO[C@H]1C[C@@H](C(=O)OC)[C@]2(C)CC[C@H]3C(=O)O[C@H](c4ccoc4)C[C@]3(C)[C@H]2C1=O [SALVINORIN B BUTOXYMETHYL ETHER]", "Kappa-type opioid receptor (Homo sapiens)", "µM", 0.02),
]

Field: EC50 (Kappa-type opioid receptor (Homo sapiens)). Entry: CCCOCO[C@H]1C[C@@H](C(=O)OC)[C@]2(C)CC[C@H]3C(=O)O[C@H](c4ccoc4)C[C@]3(C)[C@H]2C1=O [SALVINORIN B PROPOXYMETHYL ETHER]
0.0052
